pIC50: −log10 of the molar value.
Target or system UniProt:O00767; metric pIC50; compiled from varied reports.

1. FC(F)(F)c1ccccc1OC1CCN(c2nccnn2)CC1: 6.00 to 7.00
2. Cn1nccc(NCC(=O)N2CCC(Oc3ccc(Cl)cc3Cl)CC2)c1=O: 6.52 to 7.00

Form: Entry = CCC(C)c1ccccc1C(=O)C1CCN(c2cc(-c3nnn(CC(=O)O)n3)on2)CC1 (stereo not drawn) | System = UniProt:O00767 | pIC50 = ____
> 7.70

Form: Entry = O=C(O)Cn1nnc(-c2cnc(N3C[C@@H]4C[C@H]3CN4c3cc(F)ccc3Cl)s2)n1 | System = UniProt:O00767 | pIC50 = ____
> 7.70

Form: Entry = Cn1nccc(NCC(=O)N2CCC(Oc3cc(C(F)(F)F)ccc3Cl)CC2)c1=O | System = UniProt:O00767 | pIC50 = ____
7.00 to 8.00

Form: Entry = Cn1nccc(NC(=O)N2CCC(Oc3cccc(C(F)(F)F)c3)CC2)c1=O | System = UniProt:O00767 | pIC50 = ____
7.00 to 8.00

Form: Entry = O=C(O)Cn1nnc(-c2cc(N3CCC(C(=O)c4cc(F)ccc4C(F)F)CC3)no2)n1 | System = UniProt:O00767 | pIC50 = ____
> 7.70

Form: Entry = Cc1nnc(N2CCC(Oc3cc(C(F)(F)F)ccc3Cl)CC2)nc1C | System = UniProt:O00767 | pIC50 = ____
6.00 to 7.00

Form: Entry = O=C(O)Cn1nnc(-c2cc(N3CCC(C(=O)c4cc(F)ccc4Br)CC3)no2)n1 | System = UniProt:O00767 | pIC50 = ____
> 7.70

Form: Entry = Cn1nccc(NC(=O)N2CCC(Oc3cc(C(F)(F)F)ccc3Cl)CC2)c1=O | System = UniProt:O00767 | pIC50 = ____
7.00 to 7.52

Form: Entry = O=C(O)Cn1nnc(-c2cnc(N3CCC(C(=O)c4ccccc4C(F)(F)F)CC3)s2)n1 | System = UniProt:O00767 | pIC50 = ____
> 7.70

Form: Entry = COc1cnn(C)c(=O)c1NCC(=O)N1CCC(Oc2cc(C(F)(F)F)ccc2Cl)CC1 | System = UniProt:O00767 | pIC50 = ____
6.00 to 7.00
